The reported measurements were obtained from paper PMC2613833.

target: estrogen receptor α (ERα) (Homo sapiens, UniProt P03372); assay: Luciferase reporter gene assay; assay type: cell-based; conditions: IC50, CBI inhibition of reporter gene activity, HEC-1 cells, full-length ERα, 1 nM estradiol, 24 h
Sequence (P03372 whole entry): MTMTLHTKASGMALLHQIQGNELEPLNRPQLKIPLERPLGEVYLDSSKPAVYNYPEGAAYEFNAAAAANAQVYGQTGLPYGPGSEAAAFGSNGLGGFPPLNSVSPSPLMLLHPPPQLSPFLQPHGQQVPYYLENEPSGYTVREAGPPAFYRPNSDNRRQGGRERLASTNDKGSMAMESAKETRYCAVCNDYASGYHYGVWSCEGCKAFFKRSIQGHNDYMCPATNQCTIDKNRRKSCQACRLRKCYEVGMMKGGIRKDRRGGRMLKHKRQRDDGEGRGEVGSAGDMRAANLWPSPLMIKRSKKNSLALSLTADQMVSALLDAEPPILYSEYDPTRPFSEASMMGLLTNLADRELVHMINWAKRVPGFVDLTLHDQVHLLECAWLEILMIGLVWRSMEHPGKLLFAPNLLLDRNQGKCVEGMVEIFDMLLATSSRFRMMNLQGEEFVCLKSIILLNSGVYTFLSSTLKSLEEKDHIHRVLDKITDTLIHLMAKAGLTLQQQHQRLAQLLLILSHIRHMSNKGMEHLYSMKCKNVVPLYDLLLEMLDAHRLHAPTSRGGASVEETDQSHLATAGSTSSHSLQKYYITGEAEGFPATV
pIC50: −log10 of the molar value.
READOUT: pIC50

| COMPOUND | TGT | READOUT | NUMERIC READOUT |
| --- | --- | --- | --- |
| COC1=C(/C=N/NC(=N)N)CCc2ccccc21 | estrogen receptor α (ERα) (Homo sapiens, UniProt P03372) | pIC50 | 5.51 |
| N=C(N)N/N=C/C1=C(Oc2ccccc2)c2ccccc2CC1 | estrogen receptor α (ERα) (Homo sapiens, UniProt P03372) | pIC50 | 5.46 |
| N=C(N)N/N=C/c1ccc2ccccc2c1 | estrogen receptor α (ERα) (Homo sapiens, UniProt P03372) | pIC50 | 5.12 |
| CC(/C=N/NC(=N)N)=C(/Cl)c1ccccc1 | estrogen receptor α (ERα) (Homo sapiens, UniProt P03372) | pIC50 | 5.85 |
| N=C(N)N/N=C/C1=C(Br)c2ccccc2CC1 | estrogen receptor α (ERα) (Homo sapiens, UniProt P03372) | pIC50 | 5.11 |

(P) N=C(N)N/N=C/C1=C(C(F)(F)F)c2ccccc2CC1
(Q) Cc1cc(C)c2c(c1)C(Cl)=C(/C=N/NC(=N)N)CC2
Identify the entry with the larger pIC50. Options: P and Q The response must carry the label of the picked entry.
Q

(1) N=C(N)N/N=C/C1=C(Cl)c2ccccc2CCC1
(2) CC1CC(/C=N/NC(=N)N)=C(Cl)c2ccccc21 (stereo not shown)
Identify the entry with the larger pIC50. Options: 1 and 2 The response must carry the label of the picked entry.
2
(2: 5.82, 1: 5.48)
